Hey, just so you know, these numbers are from patent US6147204.

# target-under-test: VEGF (vascular endothelial growth factor) (UniProt P15692-4 P15692-4:27-191)
# Sequence (P15692 other isoform, or with tags, fused parts or gaps): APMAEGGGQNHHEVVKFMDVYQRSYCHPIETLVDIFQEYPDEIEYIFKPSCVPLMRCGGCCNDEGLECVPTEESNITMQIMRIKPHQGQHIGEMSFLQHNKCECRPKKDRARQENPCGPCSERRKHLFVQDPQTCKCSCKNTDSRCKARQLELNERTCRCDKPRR
# assay: competition; not an effective competitor up to 2 uM
# condition-details: chain copies: 2
# Experimental: NX278-Liposome Complex was prepared by incubating NX-278 (1 mg) (FIG. 1N; SEQ ID NO: 19) with of a mixture of DSPC:cholesterol (50 mg) in 10 mM phosphate (pH 7.4) buffer containing 9% sucrose and sonicated for 15–30 min using a probe-type sonicator until opalescent solution was obtained. The control Nucleic Acid Ligand-Liposome Complex containing a sequence scrambled analog of ligand NX-278 (scNX278) (FIG. 1W; SEQ ID NO:28) was prepared in the same manner. […]

{"columns": ["binder", "EC50"],
 "data": [
  ["TTTTGUCGGUACGGAGUGGACCGUCACGTTTTT (mixed, dialkylglycerol (DAG), embedded in DSPC:cholesterol liposome) [scNX278-liposome]", "> 2000 nM"]
]}
